Cited source: patent US11504441B2

Below: a set of entries, each annotated with reported tissue uptake at 1 h.
experiment: in vivo; conditions: male, NODSCID 1L2RγKO, mouse, iv, total radioactivity, Spleen uptake

Look at this compound and give its reported tissue uptake at 1 h. O=C(O)C[C@H](NC(=O)N[C@@H](CCCCNC(=O)[C@H](Cc1c2ccccc2cc2ccccc12)NC(=O)[C@H]1CC[C@H](CNC(=O)CN2CCN(CC(=O)O)CCN(CC(=O)O)CCN(CC(=O)O)CC2)CC1)C(=O)O)C(=O)O [68Ga-HTK03161, metal not drawn] 0.27 %ID/g

* * *

assay: in vivo; parameters: species or system mice; settings: male, NODSCID 1L2RγKO, mouse, iv, total radioactivity, Tail uptake
Below: a set of entries, each annotated with reported tissue uptake at 120 h.
Report as a plain number; the unit %ID/g is understood.

Worked set:
Look at this compound and give its reported tissue uptake at 120 h. COc1ccc(CCCC(=O)NCC(=O)N[C@@H](CCCCNC(=O)CN2CCN(CC(=O)O)CCN(CC(=O)O)CCN(CC(=O)O)CC2)C(=O)NC[C@H]2CC[C@H](C(=O)N[C@@H](Cc3c4ccccc4cc4ccccc34)C(=O)NCCCC[C@H](NC(=O)N[C@@H](COCC(=O)O)C(=O)O)C(=O)O)CC2)cc1 [177Lu-HTK04028, metal not drawn] 0.1

Look at this compound and give its reported tissue uptake at 120 h. COc1ccc(CCCC(=O)NCC(=O)N[C@@H](CCCCNC(=O)CN2CCN(CC(=O)O)CCN(CC(=O)O)CCN(CC(=O)O)CC2)C(=O)NC[C@H]2CC[C@H](C(=O)N[C@@H](Cc3c4ccccc4cc4ccccc34)C(=O)NCCCC[C@H](NC(=O)N[C@@H](CCCC(=O)O)C(=O)O)C(=O)O)CC2)cc1 [177Lu-HTK03170, metal not drawn] 0.08

Look at this compound and give its reported tissue uptake at 120 h. O=C(O)CCC[C@H](NC(=O)N[C@@H](CCCCNC(=O)[C@H](Cc1c2ccccc2cc2ccccc12)NC(=O)[C@H]1CC[C@H](CNC(=O)CN2CCN(CC(=O)O)CCN(CC(=O)O)CCN(CC(=O)O)CC2)CC1)C(=O)O)C(=O)O [177Lu-HTK03149, metal not drawn] 0.04

Look at this compound and give its reported tissue uptake at 120 h. COc1ccc(CCCC(=O)NCC(=O)N[C@@H](CCCCNC(=O)CN2CCN(CC(=O)O)CCN(CC(=O)O)CCN(CC(=O)O)CC2)C(=O)NC[C@H]2CC[C@H](C(=O)N[C@@H](Cc3c4ccccc4cc4ccccc34)C(=O)NCCCC[C@H](NC(=O)N[C@@H](CSCC(=O)O)C(=O)O)C(=O)O)CC2)cc1 [177Lu-HTK04048, metal not drawn] 0.19

Now consider a different compound.
Look at this compound and give its reported tissue uptake at 120 h. O=C(O)CCC[C@H](NC(=O)N[C@@H](CCCCNC(=O)[C@H](Cc1c2ccccc2cc2ccccc12)NC(=O)[C@H]1CC[C@H](CNC(=O)[C@H](CCCCNC(=O)CN2CCN(CC(=O)O)CCN(CC(=O)O)CCN(CC(=O)O)CC2)NC(=O)CNC(=O)CCCc2ccc(Cl)cc2)CC1)C(=O)O)C(=O)O [177Lu-HTK03153, metal not drawn] 0.24
